Test system: SK-MEL-2 melanoma
ASSAY SUMMARY: NCI-60 one-dose screen, 48 h
PARTICULARS: 10 µM unless noted
Compounds without any hit were thinned out: in the full panel of roughly 83,000, 20% have a hit. Active and inactive are the calls of the source. The calls were made as follows: active = growth percent below 10; inactive = the rest.
Please answer using one outcome listed in active, inactive

Query block: Each compound tested received a call. Report the one for CC(C)c1nc(N(C)S(C)(=O)=O)nc(-c2ccc(F)cc2)c1/C=C/[C@@H](O)C[C@@H](O)CC(=O)O .
Result block: inactive

Query block: Could you check what this test reported for CC[C@H](C)C(=O)O[C@H]1C[C@@H](C)C=C2C=C[C@H](C)[C@H](CC[C@@H]3C[C@@H](O)CC(=O)O3)[C@H]21 ?
Result block: inactive

Query block: // return assay outcome for Cc1c(N(C)CS(=O)(=O)O)c(=O)n(-c2ccccc2)n1C
Result block: inactive

Query block: Outcome? COc1cc2c(C#N)n3c(c2cc1OC)C(=O)C(c1ccccc1)Oc1ccccc1-3 (stereo not given)
Result block: inactive

Query block: Hey, what did the test say about c1ccc(-n2nnnc2-c2cccc3ccccc23)cc1 ?
Result block: inactive

Query block: Field: outcome | Entry: CCCCSc1cc(C)nc(N)n1
Result block: inactive

Query block: Hey, what did the test say about O=C1OCC/C1=C\OCCCO/C=C1\CCOC1=O ?
Result block: inactive

Query block: For O=C(CSc1nnc(Nc2ccccc2)s1)NCCc1ccc(F)cc1 , what call appears in the results of this test?
Result block: inactive

Query block: How did this test come out for CC(NC(=O)C(C)Oc1ccc(Cl)cc1Cl)C(=O)O (stereo not given) ?
Result block: inactive

Query block: Call for entry COc1ccc(-c2noc(N)c2-c2cc(OC)c3c(c2)OCO3)cc1 :
Result block: active
